Numbers sourced from PubChem BioAssay (NCI).

Kindly state TGI for each of the entries shown.
System: HL-60(TB) leukemia
Experiment: NCI tumour cell line growth inhibition, 48 h
Answers are plain numbers, in µM.

COc1ccc2[nH]cc(CN3CCC(CO)(c4ccccc4)CC3)c2c1 :: 48.5
CN1CCN(CCCOc2ccc3nc(Nc4ccc(C(F)(F)F)c(Cl)c4)ccc3c2)CC1 :: 4.01

Pending compound:
// query Item "Cc1nn(-c2ccccc2)c(C)c1/C=N/N1CCN(Cc2ccccc2)CC1" with HL-60(TB) leukemia - TGI?
// result 63

###

Test system: HS 578T breast
Assay: NCI tumour cell line growth inhibition, 48 h; in the data active = GI50 below about 0.43 µM; inactive = the rest
Select the matching outcome among yes (1) = active, no (0) = inactive

Below, 2 molecules whose answers are already recorded.
CC(=O)Nc1ccc(S(=O)(=O)c2ccc(NC(C)=O)cc2)cc1 :: no (0)
Cc1cccc2c1NC(=O)C2(c1ccc(O)cc1)c1ccc(O)cc1 :: yes (1)

// query What call does the record list for "COc1cc(C2C(C(=O)OCc3ccccc3)=C(C)NC(C)=C2C(=O)OCc2ccccc2)cc(OC)c1OC" ?
// result no (0)
